# assay_text: Trial 000015 Part 3: pharmacokinetics, single intranasal and single intravenous cross-over
# experimental_setup: female, human, plasma, iv, 20 μg, Cmax Geom. mean (% CV), cross-over, 20 μg i.v. infusion over 25 minutes, N = 6
*1 amine or outer side, *2 acyl side, *3 side chain or, on linkers, in order; H or OH if unused. Where a SMILES comes first, the peptide text is derived from it. Bridges are numbered along the chain shown (N, C = ends). [ ]: non-standard residue; d: D form. N(4-F-Bzl)Gly = O=C(O)CNCc1ccc(F)cc1; X1 = O=C(CCC[*:2])[*:1]
quantity_name: Cmax (ng/mL)
Numbers only, in ng/mL.

Q: Returns the measured Cmax for the input compound. Input: CC[C@H](C)[C@@H]1NC(=O)[C@H](Cc2ccc(O)cc2)NC(=O)CCCSC[C@@H](C(=O)N(CC(=O)N[C@@H](CC(C)C)C(=O)NCC(N)=O)Cc2ccc(F)cc2)NC(=O)[C@H](CC(N)=O)NC(=O)[C@H](CCC(N)=O)NC1=O [merotocin] (YIQNC[N(4-F-Bzl)Gly]LG-NH2; linker N-5 via X1)
A: 0.463
